From: paper PMC10726354

Hi there, I'd appreciate the recorded SUVmax PC3 mock tumor for every entry that follows.
system: PC3 mock tumor; experiment: Small-animal PET, uptake in mock tumor; conditions: 24.5 (24–25) hours p.i., tracer only
Lab note: jot down the number only; don't add units.

Fill in reported SUVmax PC3 mock tumor for this entry: Cc1c(COc2cc(OCc3cncc(S(C)(=O)=O)c3)c(CN[C@@H](CS(=O)(=O)O)C(=O)NCCP(=O)(O)O)cc2Cl)cccc1-c1cccc(OCc2cn(CCCN3CCN(C(=O)[C@H](CS(=O)(=O)O)NC(=O)CC[C@H](C(=O)O)N4CCN(CC(=O)O)CCN(CC(=O)O)CC4)CC3)nn2)c1C.[64Cu+2] [[^64Cu]Cu-5]
1.05

Using the record for Cc1c(COc2cc(OCc3cncc(S(C)(=O)=O)c3)c(CN[C@@H](CS(=O)(=O)O)C(=O)NCCP(=O)(O)O)cc2Cl)cccc1-c1cccc(OCc2cn(CCCN3CCN(C(=O)[C@H](CP(=O)(O)O)NC(=O)CC[C@H](C(=O)O)N4CCN(CC(=O)O)CCN(CC(=O)O)CC4)CC3)nn2)c1C.[64Cu+2] [[^64Cu]Cu-6] , state its measured SUVmax PC3 mock tumor.
2.2

Find the measured SUVmax PC3 mock tumor of Cc1c(COc2cc(OCc3cncc(S(C)(=O)=O)c3)c(CN[C@@H](CS(=O)(=O)O)C(=O)NCCS(=O)(=O)O)cc2Cl)cccc1-c1cccc(OCc2cn(CCCN3CCN(C(=O)[C@H](CS(=O)(=O)O)NC(=O)CC[C@H](C(=O)O)N4CCN(CC(=O)O)CCN(CC(=O)O)CC4)CC3)nn2)c1C.[64Cu+2] [[^64Cu]Cu-3] and report it.
0.7

---

For each of the molecules below, state its SUVmax PC3 mock tumor.
test system: PC3 mock tumor; assay: Small-animal PET, uptake in mock tumor; conditions: 4.5 (4–5) hours p.i., tracer only
Please respond with just the number, no unit label.

Determine its reported SUVmax PC3 mock tumor: Cc1c(COc2cc(OCc3cncc(S(C)(=O)=O)c3)c(CN[C@@H](CS(=O)(=O)O)C(=O)NCCP(=O)(O)O)cc2Cl)cccc1-c1cccc(OCc2cn(CCCN3CCN(C(=O)[C@H](CS(=O)(=O)O)NC(=O)CC[C@H](C(=O)O)N4CCN(CC(=O)O)CCN(CC(=O)O)CC4)CC3)nn2)c1C.[64Cu+2] [[^64Cu]Cu-5]
1.1

Complete the entry with SUVmax PC3 mock tumor for Cc1c(COc2cc(OCc3cncc(S(C)(=O)=O)c3)c(CN[C@@H](CS(=O)(=O)O)C(=O)NCCP(=O)(O)O)cc2Cl)cccc1-c1cccc(OCc2cn(CCCN3CCN(C(=O)CC[C@H](C(=O)O)N4CCN(CC(=O)O)CCN(CC(=O)O)CC4)CC3)nn2)c1C.[64Cu+2] [[^64Cu]Cu-4]
0.45

Return SUVmax PC3 mock tumor (reported value) for this molecule: Cc1c(COc2cc(OCc3cncc(C#N)c3)c(CN[C@@H](CS(=O)(=O)O)C(=O)NCCS(=O)(=O)O)cc2Cl)cccc1-c1cccc(OCc2cn(CCCN3CCN(C(=O)[C@H](CS(=O)(=O)O)NC(=O)CC[C@H](C(=O)O)N4CCN(CC(=O)O)CCN(CC(=O)O)CC4)CC3)nn2)c1C.[64Cu+2] [[^64Cu]Cu-1]
0.8

Give the measured SUVmax PC3 mock tumor for Cc1c(COc2cc(OCc3cncc(S(C)(=O)=O)c3)c(CN[C@@H](CS(=O)(=O)O)C(=O)NCCS(=O)(=O)O)cc2Cl)cccc1-c1cccc(OCc2cn(CCCN3CCN(C(=O)[C@H](CS(=O)(=O)O)NC(=O)CC[C@H](C(=O)O)N4CCN(CC(=O)O)CCN(CC(=O)O)CC4)CC3)nn2)c1C.[64Cu+2] [[^64Cu]Cu-3]
0.55

Supply recorded SUVmax PC3 mock tumor for Cc1c(COc2cc(OCc3cncc(S(C)(=O)=O)c3)c(CN[C@@H](CS(=O)(=O)O)C(=O)NCCP(=O)(O)O)cc2Cl)cccc1-c1cccc(OCc2cn(CCCN3CCN(C(=O)[C@H](CP(=O)(O)O)NC(=O)CC[C@H](C(=O)O)N4CCN(CC(=O)O)CCN(CC(=O)O)CC4)CC3)nn2)c1C.[64Cu+2] [[^64Cu]Cu-6] here.
1.35
